- target: T1, biotinylated recombinant human IL-12Rβ2 (produced in-house) (human, UniProt Q99665 24-622, random biotinylated)
- T1 construct: also called hIL-12RB2; hIL12RB2
- T1 sequence: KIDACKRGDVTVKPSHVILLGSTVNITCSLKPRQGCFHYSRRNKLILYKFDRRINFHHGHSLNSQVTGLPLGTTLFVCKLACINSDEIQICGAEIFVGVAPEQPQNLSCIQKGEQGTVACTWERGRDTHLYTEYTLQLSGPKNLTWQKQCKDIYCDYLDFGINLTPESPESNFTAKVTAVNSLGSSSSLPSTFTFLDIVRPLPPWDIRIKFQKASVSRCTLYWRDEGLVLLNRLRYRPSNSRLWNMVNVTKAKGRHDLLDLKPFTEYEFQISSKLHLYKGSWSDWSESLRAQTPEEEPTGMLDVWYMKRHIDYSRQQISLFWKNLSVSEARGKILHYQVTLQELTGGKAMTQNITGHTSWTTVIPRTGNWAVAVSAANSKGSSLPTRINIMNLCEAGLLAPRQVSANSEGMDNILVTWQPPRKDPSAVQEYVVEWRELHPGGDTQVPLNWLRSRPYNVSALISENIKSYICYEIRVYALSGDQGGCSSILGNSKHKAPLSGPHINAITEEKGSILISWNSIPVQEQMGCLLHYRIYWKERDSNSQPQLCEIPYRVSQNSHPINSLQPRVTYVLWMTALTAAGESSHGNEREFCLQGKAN
- assay.protocol: BLI (Octet), P.E. VHH on immobilised biotinylated hIL-12RB2
observation.type: Response
// return just the number, without any unit appended

Below are worked cases with known answers.
>  <binder>
anti-IL-12Rβ2 VHH clone 3CRH25 (VHH, not shown: small tags and cut ends, tested as periplasmic extract) VHH: QVQLQESGGGLVQAGDSLRLSCTASGHTFSRYTTIGWFRQAPGKDREFVAAIRWSGDITDYADAVKGRFTISRDNVKNTVYLQMNSLNPEDTAVYYCARGYSEYGVLSRNRGLYAYWGQGTQVTVSS

>  <observation.type>
Response

>  <result.value>
0.523

$$$$
>  <binder>
anti-IL-12Rβ2 VHH clone 3CAHS41 (VHH, not shown: small tags and cut ends, tested as periplasmic extract) VHH: QVQLQESGGGLVQAGDSLRLSCAASGRTFDTYIVGWFRQAPGKEREFVSALSWSDDTTIRDDSLRGRFTISRDNAKNTVYLLMNSLKPEDTAVYYCAAKAKPPAATWSSYRNREWYDYWGQGTQVTVSS

>  <observation.type>
Response

>  <result.value>
0.609

$$$$
>  <binder>
anti-IL-12Rβ2 VHH clone 3CAHS171 (VHH, not shown: small tags and cut ends, tested as periplasmic extract; also called 3CANS171) VHH: QVQLQESGGGLVQPGGSLRLTCVASGFPFSTHAMSWVRQPPGKGREWISAINSGGDSTDYADSVMGRFTISRDNAKNTVYLQMNSLKSEDTAAYYCAKYEDCSDYDCSSRASWGQGTQVTVSS

>  <observation.type>
Response

>  <result.value>
0.195

$$$$

response.value for anti-IL-12Rβ2 VHH clone 3CAHS124 (VHH, not shown: small tags and cut ends, tested as periplasmic extract) VHH: QVQLQESGGGLVQPGGSLRLSCAASGRTINAYIMGWFRQAPGKEREFVAAVSGSGGSTYYADSVKGRFTISRDNAKNTVNLQMDNLRSEDTDVYYCAATYESVYLQNPGQYDYWGQGTQVTVSS (field: Response) = 0.293
